# binding signal per record follows
tgt: GST-Hu-p50 (Homo sapiens, UniProt P19838 7-356)
Sequence (P19838 7-356): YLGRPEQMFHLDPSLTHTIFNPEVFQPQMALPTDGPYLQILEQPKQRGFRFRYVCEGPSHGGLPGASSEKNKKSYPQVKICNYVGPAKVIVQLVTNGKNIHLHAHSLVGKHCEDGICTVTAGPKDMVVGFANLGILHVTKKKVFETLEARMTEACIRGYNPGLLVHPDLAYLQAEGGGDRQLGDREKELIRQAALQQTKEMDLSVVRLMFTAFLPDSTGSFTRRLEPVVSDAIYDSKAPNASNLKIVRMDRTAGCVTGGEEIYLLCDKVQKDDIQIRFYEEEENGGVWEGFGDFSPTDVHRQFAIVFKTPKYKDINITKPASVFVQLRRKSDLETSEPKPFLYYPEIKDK
experiment_summary: protein-binding microarray (PBM); PBM: ~300 nM protein, 6 mM HEPES pH 7.8, 80 mM KCl, 0.5 mM EDTA, 0.5 mM EGTA, 6% glycerol, 35 ng/ul poly-dIdC, 1% milk, 1 h, room temperature; high values mean tight binding
run_parameters: dsDNA, one strand shown
measured_property: binding signal

sequence_text	tgt	reported
CCGATTAACATCAGGGCTGCCCCTGATGTTAATCGGGTCTTGATTCGCTTGACGCTGCTG	GST-Hu-p50 (Homo sapiens, UniProt P19838 7-356)	3.48 z-score
CCGATTAACATCAAGACTTCCCCTGATGTTAATCGGGTCTTGATTCGCTTGACGCTGCTG	GST-Hu-p50 (Homo sapiens, UniProt P19838 7-356)	5.95 z-score
CCGATTAACATCAAGGGGGGAACTGATGTTAATCGGGTCTTGATTCGCTTGACGCTGCTG	GST-Hu-p50 (Homo sapiens, UniProt P19838 7-356)	5.52 z-score
CCGATTAACATCAAGGTTTCCCCTGATGTTAATCGGGTCTTGATTCGCTTGACGCTGCTG	GST-Hu-p50 (Homo sapiens, UniProt P19838 7-356)	6.46 z-score
CCGATTAACATCAAAAAGACCCCTGATGTTAATCGGGTCTTGATTCGCTTGACGCTGCTG	GST-Hu-p50 (Homo sapiens, UniProt P19838 7-356)	4.67 z-score
CCGATTAACATCAAAACTCCCCGTGATGTTAATCGGGTCTTGATTCGCTTGACGCTGCTG	GST-Hu-p50 (Homo sapiens, UniProt P19838 7-356)	5.74 z-score
CCGATTAACATCACGGGAAATCCTGATGTTAATCGGGTCTTGATTCGCTTGACGCTGCTG	GST-Hu-p50 (Homo sapiens, UniProt P19838 7-356)	3.91 z-score
CCGATTAACATCAGGGAGGTACCTGATGTTAATCGGGTCTTGATTCGCTTGACGCTGCTG	GST-Hu-p50 (Homo sapiens, UniProt P19838 7-356)	2.03 z-score
CCGATTAACATCAAAGCACCCCCTGATGTTAATCGGGTCTTGATTCGCTTGACGCTGCTG	GST-Hu-p50 (Homo sapiens, UniProt P19838 7-356)	4.35 z-score
CCGATTAACATCAGGGGGATAAATGATGTTAATCGGGTCTTGATTCGCTTGACGCTGCTG	GST-Hu-p50 (Homo sapiens, UniProt P19838 7-356)	4.82 z-score
CCGATTAACATCAAAAGGGGATATGATGTTAATCGGGTCTTGATTCGCTTGACGCTGCTG	GST-Hu-p50 (Homo sapiens, UniProt P19838 7-356)	4.41 z-score
CCGATTAACATCAAAACCCCCCGTGATGTTAATCGGGTCTTGATTCGCTTGACGCTGCTG	GST-Hu-p50 (Homo sapiens, UniProt P19838 7-356)	6.96 z-score
CCGATTAACATCACATTTTCCCCTGATGTTAATCGGGTCTTGATTCGCTTGACGCTGCTG	GST-Hu-p50 (Homo sapiens, UniProt P19838 7-356)	6.01 z-score
CCGATTAACATCAGAATTCCCCCTGATGTTAATCGGGTCTTGATTCGCTTGACGCTGCTG	GST-Hu-p50 (Homo sapiens, UniProt P19838 7-356)	8.34 z-score
CCGATTAACATCAGATATTCCCCTGATGTTAATCGGGTCTTGATTCGCTTGACGCTGCTG	GST-Hu-p50 (Homo sapiens, UniProt P19838 7-356)	5.94 z-score
CCGATTAACATCAAAATCCCAGTTGATGTTAATCGGGTCTTGATTCGCTTGACGCTGCTG	GST-Hu-p50 (Homo sapiens, UniProt P19838 7-356)	1.82 z-score
CCGATTAACATCATCCCGGGAAATGATGTTAATCGGGTCTTGATTCGCTTGACGCTGCTG	GST-Hu-p50 (Homo sapiens, UniProt P19838 7-356)	1.36 z-score
CCGATTAACATCAGGGGAGGTAATGATGTTAATCGGGTCTTGATTCGCTTGACGCTGCTG	GST-Hu-p50 (Homo sapiens, UniProt P19838 7-356)	2.14 z-score

###

tgt: GST-Nv-NF-kB (Ser allele) (Nematostella vectensis, UniProt A7UNT2 2-411)
Sequence: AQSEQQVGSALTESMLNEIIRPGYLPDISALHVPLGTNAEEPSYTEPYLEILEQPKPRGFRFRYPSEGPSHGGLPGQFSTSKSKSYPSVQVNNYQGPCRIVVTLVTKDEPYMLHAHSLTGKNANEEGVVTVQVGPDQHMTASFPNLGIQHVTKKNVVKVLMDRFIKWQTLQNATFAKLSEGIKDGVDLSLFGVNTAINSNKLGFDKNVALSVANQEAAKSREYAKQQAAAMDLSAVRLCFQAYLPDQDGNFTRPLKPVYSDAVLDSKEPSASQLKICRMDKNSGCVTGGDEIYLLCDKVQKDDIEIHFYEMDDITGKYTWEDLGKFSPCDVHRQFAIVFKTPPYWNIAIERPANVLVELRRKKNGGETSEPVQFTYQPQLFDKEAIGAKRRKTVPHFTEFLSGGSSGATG
experiment_summary: protein-binding microarray (PBM); PBM: ~300 nM protein, 6 mM HEPES pH 7.8, 80 mM KCl, 0.5 mM EDTA, 0.5 mM EGTA, 6% glycerol, 35 ng/ul poly-dIdC, 1% milk, 1 h, room temperature; high values mean tight binding
run_parameters: dsDNA, one strand shown
# binding signal per record follows

sequence_text	binding signal (z-score)
CCGATTAACATCAGGGGAGATAATGATGTTAATCGGGTCTTGATTCGCTTGACGCTGCTG	5.56
CCGATTAACATCAGGGGACTCCATGATGTTAATCGGGTCTTGATTCGCTTGACGCTGCTG	4.65
CCGATTAACATCAATATATTCCCTGATGTTAATCGGGTCTTGATTCGCTTGACGCTGCTG	4.95
CCGATTAACATCAGGGAAAAACATGATGTTAATCGGGTCTTGATTCGCTTGACGCTGCTG	7.18
CCGATTAACATCATATGGGAAAATGATGTTAATCGGGTCTTGATTCGCTTGACGCTGCTG	4.82

###

tgt: GST-Co-NF-kB (Capsaspora owczarzaki, UniProt F1ARL5 200-546)
Sequence: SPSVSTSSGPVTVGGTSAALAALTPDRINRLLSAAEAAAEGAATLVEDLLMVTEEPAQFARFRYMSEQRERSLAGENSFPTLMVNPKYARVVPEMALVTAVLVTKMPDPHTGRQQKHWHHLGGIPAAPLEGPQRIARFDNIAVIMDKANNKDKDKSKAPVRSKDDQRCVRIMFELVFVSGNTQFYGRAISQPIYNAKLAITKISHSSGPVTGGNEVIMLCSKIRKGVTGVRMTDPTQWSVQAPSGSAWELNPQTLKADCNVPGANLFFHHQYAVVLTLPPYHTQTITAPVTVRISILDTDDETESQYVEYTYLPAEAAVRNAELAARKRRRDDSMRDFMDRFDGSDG
experiment_summary: protein-binding microarray (PBM); PBM: ~300 nM protein, 6 mM HEPES pH 7.8, 80 mM KCl, 0.5 mM EDTA, 0.5 mM EGTA, 6% glycerol, 35 ng/ul poly-dIdC, 1% milk, 1 h, room temperature; high values mean tight binding
run_parameters: dsDNA, one strand shown
# binding signal per record follows

sequence_text	value_units	binding signal
CCGATTAACATCAGGGATTTTACTGATGTTAATCGGGTCTTGATTCGCTTGACGCTGCTG	z-score	2.36
CCGATTAACATCACGGGAATACCTGATGTTAATCGGGTCTTGATTCGCTTGACGCTGCTG	z-score	3.47
CCGATTAACATCAGGGGAAGCACTGATGTTAATCGGGTCTTGATTCGCTTGACGCTGCTG	z-score	4.4
CCGATTAACATCACGGAAAAAACTGATGTTAATCGGGTCTTGATTCGCTTGACGCTGCTG	z-score	1.37
CCGATTAACATCACCCTCCCCCCTGATGTTAATCGGGTCTTGATTCGCTTGACGCTGCTG	z-score	6.06

###

# binding signal per record follows
tgt: GST-Ap-NF-kB RHD (Exaiptasia pallida (Aiptasia), UniProt A0A913YAJ5 2-422)
Sequence: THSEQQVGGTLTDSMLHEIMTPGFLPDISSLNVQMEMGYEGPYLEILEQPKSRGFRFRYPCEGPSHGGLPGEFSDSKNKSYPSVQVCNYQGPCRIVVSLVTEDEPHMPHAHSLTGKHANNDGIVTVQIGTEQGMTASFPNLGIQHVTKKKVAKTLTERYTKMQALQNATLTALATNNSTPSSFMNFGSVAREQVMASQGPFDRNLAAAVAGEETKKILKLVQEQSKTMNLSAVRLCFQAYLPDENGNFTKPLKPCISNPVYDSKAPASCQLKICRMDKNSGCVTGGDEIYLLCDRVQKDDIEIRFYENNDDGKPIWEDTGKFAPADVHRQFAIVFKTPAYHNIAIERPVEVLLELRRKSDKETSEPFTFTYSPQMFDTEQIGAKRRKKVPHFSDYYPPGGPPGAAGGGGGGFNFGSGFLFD
experiment_summary: protein-binding microarray (PBM); PBM: ~300 nM protein, 6 mM HEPES pH 7.8, 80 mM KCl, 0.5 mM EDTA, 0.5 mM EGTA, 6% glycerol, 35 ng/ul poly-dIdC, 1% milk, 1 h, room temperature; Ap Aiptasia and Nv Nematostella (sea anemones) / Co Capsaspora / Aq Amphimedon (sponge) / Dm Drosophila / Hu human; RHD is the Rel homology domain; high values mean tight binding
run_parameters: dsDNA, one strand shown

sequence_text	value_units	binding signal
CCGATTAACATCAGGCAACCCCCTGATGTTAATCGGGTCTTGATTCGCTTGACGCTGCTG	z-score	5.96
CCGATTAACATCAAGGGGGAATCTGATGTTAATCGGGTCTTGATTCGCTTGACGCTGCTG	z-score	8.47
CCGATTAACATCAGGGGGGATACTGATGTTAATCGGGTCTTGATTCGCTTGACGCTGCTG	z-score	6.78
CCGATTAACATCAAGGGACTTTCTGATGTTAATCGGGTCTTGATTCGCTTGACGCTGCTG	z-score	7.14
CCGATTAACATCAATATCCCCCCTGATGTTAATCGGGTCTTGATTCGCTTGACGCTGCTG	z-score	7.34
CCGATTAACATCACGTTCCCCCCTGATGTTAATCGGGTCTTGATTCGCTTGACGCTGCTG	z-score	6.32
CCGATTAACATCACGGGAAAACCTGATGTTAATCGGGTCTTGATTCGCTTGACGCTGCTG	z-score	4.2
CCGATTAACATCAGGGGTATAACTGATGTTAATCGGGTCTTGATTCGCTTGACGCTGCTG	z-score	1.94
CCGATTAACATCACATATCCCCCTGATGTTAATCGGGTCTTGATTCGCTTGACGCTGCTG	z-score	6.5
CCGATTAACATCAGGGATTAACATGATGTTAATCGGGTCTTGATTCGCTTGACGCTGCTG	z-score	1.77
CCGATTAACATCACGGAAGTCCCTGATGTTAATCGGGTCTTGATTCGCTTGACGCTGCTG	z-score	5.31
CCGATTAACATCAGGGATCCCCATGATGTTAATCGGGTCTTGATTCGCTTGACGCTGCTG	z-score	7.26
CCGATTAACATCAGGATACCCCCTGATGTTAATCGGGTCTTGATTCGCTTGACGCTGCTG	z-score	7.7
CCGATTAACATCACAACCCCCCCTGATGTTAATCGGGTCTTGATTCGCTTGACGCTGCTG	z-score	5.55
CCGATTAACATCAATGCACCCCCTGATGTTAATCGGGTCTTGATTCGCTTGACGCTGCTG	z-score	4.19
CCGATTAACATCACCCCCCCCCCTGATGTTAATCGGGTCTTGATTCGCTTGACGCTGCTG	z-score	5.35
CCGATTAACATCAAGGGGGAAACTGATGTTAATCGGGTCTTGATTCGCTTGACGCTGCTG	z-score	7.59
CCGATTAACATCAGGGAAATATATGATGTTAATCGGGTCTTGATTCGCTTGACGCTGCTG	z-score	3.7
